# Target System: HRas^G12V (Homo sapiens (Human), UniProt P01112, G12V)
# Sequence (P01112 1-166 G12V): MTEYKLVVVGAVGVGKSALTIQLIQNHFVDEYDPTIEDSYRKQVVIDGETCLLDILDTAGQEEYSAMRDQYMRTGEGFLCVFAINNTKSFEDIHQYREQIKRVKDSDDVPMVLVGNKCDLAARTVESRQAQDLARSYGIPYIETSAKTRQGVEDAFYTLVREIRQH
# Test Summary: 19F T2-CPMG NMR score
# Assay type: binding
Measured Property: 19F T2-CPMG Score
Answers are plain numbers.

Answered cases to consult:
In [3]: df
Out[3]:
                                   molecule  measured_property  assay_result
0  COC(=O)C1CCN1C(=O)Cc1c[nH]c2cc(F)ccc12 (centres unmarked)  19F T2-CPMG Score         11.14
1  COCC(=O)Nc1cccc(NC(=O)Cc2c[nH]c3cc(F)ccc23)c1  19F T2-CPMG Score         −1.66
2        O=C(Cc1c[nH]c2cc(F)ccc12)NC1CCOCC1  19F T2-CPMG Score          3.77
3  O=C(O)[C@@H]1COCCN1C(=O)Cc1c[nH]c2cc(F)ccc12  19F T2-CPMG Score          2.07
4  CC(=O)N1CCC(C(=O)N2CCC(c3c[nH]c4cc(F)ccc34)CC2)CC1  19F T2-CPMG Score         10.24
5  CN1CCN(C(=O)Cc2c[nH]c3cc(F)ccc23)[C@H](C(=O)O)C1  19F T2-CPMG Score          2.14
6  CC(=O)NC[C@H]1CN(C(=O)Cc2c[nH]c3cc(F)ccc23)CCO1  19F T2-CPMG Score           5.5
7  CC(=O)N1CCC(C(=O)N2CCC(c3c[nH]c4cc(F)ccc34)C2)CC1 (centres unmarked)  19F T2-CPMG Score          9.57

Would you mind giving 19F T2-CPMG Score for every molecule in the list below?
1. CC(C)C(=O)C1CN(C(=O)Cc2c[nH]c3cc(F)ccc23)C1
2. NC(=O)C1CN(C(=O)Cc2c[nH]c3cc(F)ccc23)C1
3. Fc1ccc2c(CNc3ccccc3)c[nH]c2c1

Ans.
[13.95, 15.2, 25.51]
